# target-entity: T1, human TREM2 on the cell surface (human, UniProt Q9NZC2 19-230)
# T1 construct: also called surface TREM2; TREM2 expressed in HEK293-H6 cells
# T1 sequence: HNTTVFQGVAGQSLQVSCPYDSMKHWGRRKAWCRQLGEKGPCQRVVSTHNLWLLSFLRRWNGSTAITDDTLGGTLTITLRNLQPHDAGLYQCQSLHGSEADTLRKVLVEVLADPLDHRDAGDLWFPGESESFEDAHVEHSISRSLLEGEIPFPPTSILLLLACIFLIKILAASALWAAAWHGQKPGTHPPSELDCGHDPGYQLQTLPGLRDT
# experiment: cell binding, human macrophages, dose titration
Exercise: for every item that follows, state its recorded pEC50.
// pEC50 here means minus log10 of the molar concentration (mol/L)

Input: Give recorded pEC50. CL0020210 (antibody, V domains shown, also called Clone CL0020210; CL020210) VH: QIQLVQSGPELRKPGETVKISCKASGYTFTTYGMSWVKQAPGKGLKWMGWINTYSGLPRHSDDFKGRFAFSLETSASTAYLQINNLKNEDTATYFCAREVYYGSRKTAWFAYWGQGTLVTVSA VL: DLVMSQSPSSLAVSVGERITMTCKSSQSLLYSNDQKNYLAWYQQIPGQSPKLLLYWASTRESGVPDRFTGSGSGTDFTLTISSVKAEDLAVYFCQQYYNYPPTFGAGTKLELK
Output: 9.05

Input: Give recorded pEC50. CL0020188 (antibody, V domains shown, also called Clone CL0020188) VH: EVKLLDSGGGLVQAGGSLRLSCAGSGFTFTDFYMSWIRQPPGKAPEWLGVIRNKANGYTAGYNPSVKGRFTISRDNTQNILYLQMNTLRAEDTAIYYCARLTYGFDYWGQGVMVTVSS VL: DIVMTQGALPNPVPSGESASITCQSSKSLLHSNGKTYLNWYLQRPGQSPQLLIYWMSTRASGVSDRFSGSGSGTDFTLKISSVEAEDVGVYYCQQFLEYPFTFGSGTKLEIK
Output: 9.30

Input: Give recorded pEC50. CL0020205 (antibody, V domains shown, also called Clone CL0020205) VH: EVQLQQSGPVLVKPGASVKMSCKASGYTFTDYYVHWVKQSHGKSLEWIGLINPYTGTTSYNQRFRVKATLTVDKSSSTAYMEVNSLTSEDSAVYYCARSRVYYGSSLFAFWGQGTLVTVSA VL: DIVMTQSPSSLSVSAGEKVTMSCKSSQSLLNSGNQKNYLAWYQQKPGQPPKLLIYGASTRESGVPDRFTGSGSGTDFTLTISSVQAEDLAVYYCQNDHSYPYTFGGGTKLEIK
Output: 8.68

Input: Give recorded pEC50. CL0020096 (antibody, V domains shown, also called Clone CL0020096) VH: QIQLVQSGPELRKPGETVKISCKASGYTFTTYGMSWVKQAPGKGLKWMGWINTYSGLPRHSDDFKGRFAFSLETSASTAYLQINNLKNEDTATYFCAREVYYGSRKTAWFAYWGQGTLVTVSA VL: DLVMSQSPSSLAVSVGERVTMSCKSSQSLLYSNDQKNYLAWYQQIPGQSPKLLIYWASTRESGVPDRFTGSGSGTDFTLTISSVKAEDLAVYFCQQYYSYPPTFGAGTKLELK
Output: 7.85

Input: Give recorded pEC50. CL0020139 (antibody, V domains shown, also called Clone CL0020139) VH: EVQLQQSGPELVKPGASVKMSCKAPGYSFTSYLMNWVKQKPGQGLEWIGYINPYSAGSNYNEKFKDKATLTSDKSSSTAYMELRSLTSEDSAVYFCARSSYRYGFDYWGQGTTLTVSS VL: DIQMTQSSSSFSVSLGDRVTITCKASEDIYNRLAWYQQKPGNAPRLLISGATSLETGVPSRFSGSGSGKDYTLSITSLQTEDVATYSCQQYWSTPWTFGGGTKLEIK
Output: 8.80

Input: Give recorded pEC50. CL0020315 (antibody, V domains shown, also called Clone CL0020315) VH: EVQLQQSGPELVKPGASVKISCKASGYTFTDYNIHWVKQSHGKSLEWIGYIYPYNGVTGYNQKFKSKATLTVDNSSSTAYMELRSLTSEDSAVYYCARSRVDGDYWGQGTTLTVSS VL: DVVMTQTPLSLPVSLGDQASISCRSSQSLVHSNGNTYLHWYLQKPGQSPKLLIYKISNRFSGVPDRFSGSGSGTDFTLKISRVEAEDLGVYFCSQSTHVPLTFGAGTKLELK
Output: 8.25

Input: Give recorded pEC50. CL0020107 (antibody, V domains shown, also called Clone CL0020107) VH: QVQLQQPGAELVKPGASVKMSCRASGYTFTNYWISWVKQRPGQGLEWIGDIYPHSTSTNYNERFRSKATLTVDKSSTTAYMQLSSLTSEDSAVYYCAREGFGISAWGQGTTLTVSS VL: QIVLTQSPAIMSASPGEKVTITCSATSSVSYMHWFQQKPGTSPKLWIYSTSNLASGVPARFSGSGSGTSHSLTISRMEAEDAATYYCQQRSSYPLTFGSGTKLELK
Output: 8.36

Input: Give recorded pEC50. CL0020313 (antibody, V domains shown, also called Clone CL0020313) VH: QVQLKQSGPGLLQPSQSLSITCTVSGFSLTSYGVHWVRQSPGKGLEWLGVIWSGGITLYNAAFMSRLSITKDNSKSQVFFKMNSLQADDTAIYYCAKVGYGSSSDYWGQGTTLTVSS VL: DVLMTQSPLSLPVSLGDQASFSCRSSQSIVHSNGNTYLEWYLQKPGQSPKLLIYKVSNRFSGVPDRFSGSGSGTDFTLKISRVEAEDLGVYYCFQGSHVPFTFGSGTKLEIK
Output: 8.92

Input: Give recorded pEC50. CL0020309 (antibody, V domains shown, also called Clone CL0020309) VH: QVQLKQSGPSLVQPSQSLSITCTVSGFSLTSYGVQWVRQSPGKGLEWLGVIWTGGTTDFNAAFKSRLSITKDNSKSQVFFKMNSLQADDSAIYYCAKIGFHSAVDYWGQGTSVTVSS VL: DVLMTQTPLSLPVSLGDQASISCRSSQNIVHSNGNTYLEWYLQKPGQSPKLLIYKVSNRFSGVPDRFSGSGSGTDFTLKINRVEAEDLGLYYCFQGSHIPFTFGSGTQLEIK
Output: 9.15
